assay: growth inhibitors of H69AR lung tumor, primary screen, human, duplicate replicates (AID 580); settings: H69AR lung tumor cells viability, ATP luminescence, 72 h; at 10 µM; active compounds read low;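 also: 100% = mean luminescence of untreated wells and 0% = no signal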
reported metric: viability (%)
# number only, unit % dropped from output

Entry `COC(=O)CNC(=O)c1c(C)cc(=O)oc1C` — recorded viability = 97.1

Quick note, viability for `Cc1c(C#N)sc2nc(-c3ccccc3)nc(N3CCCC3)c12` landed at 77

Lab note: measured viability of O=C1CC(N2CCC(C(=O)N3CCCCC3)CC2)C(=O)N1 (stereo unspecified) was 96.9

The recorded viability for entry COc1ccc(C(=O)N(Cc2ccco2)C(C(=O)NC2CCCC2)c2ccc(O)cc2)cc1OC (stereo unspecified) equals 78.8

Value of viability reported for the molecule `O=C(COc1ccc(F)cc1Br)N1CCc2ccccc21` is 75.3

Recorded result, CCOC(=O)c1ccc2nc(C)c3c(c2c1)OC(C)C3 (stereo unspecified) , viability: 87.9

Record `CC(=O)c1c(NCCc2ccccc2)cc(C)oc1=O` , field viability: 101

Looking up `COc1ccc(-n2ncc3c(=O)n(CC(=O)OCc4ccccc4)cnc32)cc1` , I see its viability listed as 97.8

Summary for this molecule, `Nc1nc(N)nc(-c2ccccc2)n1` : viability is 99.8

Form field viability, entry CC(C)CCN1CC(C(=O)NCc2ccccc2)CC1=O (stereo unspecified) : 92.6

Lab book: viability of `CC(=O)c1cccc(NC(=O)c2ccc(NS(C)(=O)=O)cc2)c1` noted as 83.6

In plain terms, `CC(C)c1cc(C(=O)NCc2ccco2)no1` has a documented viability of 80.4

# viability of `Cc1ccnc(NC(=O)CCC(=O)N(CC(=O)NC(C)(C)C)C2CCCC2)c1` = 93.2

Field viability (entry `CCOC(=O)Cn1c2c(c(=N)c3ccccc31)CCC2` ) reads 92.6

Record summary for `Cc1sc2nc(CN3CCN(S(=O)(=O)c4cccc5nonc45)CC3)[nH]c(=O)c2c1C` : reported viability = 87.9

In plain terms, `CC1(C)Cc2c(c(N3CCOCC3)nc3sc(C#N)c(N)c23)CS1` has a documented viability of 83.3

====

experiment: reversal of MRP1-mediated doxorubicin resistance, pilot screen, H69AR cells, doxorubicin co-treatment (AID 601); conditions: H69AR cells + 2 uM doxorubicin, CellTiter-Glo, 72 h; at 10 µM; active compounds read high
Can you tell me differential viability (reversal) for the items I'm about to list?
# unit: % | format: bare number

The compound `C/C(=C(\C#N)C(=O)NCCCN1CCOCC1)N(C)C` showed differential viability (reversal) equal to 8.58

The compound COCCNC(=O)C(c1ccncc1)N(C(=O)Cn1nnc2ccccc21)c1ccc(OC)cc1 (centres undefined) showed differential viability (reversal) equal to 9.12

Lab book: differential viability (reversal) of `CCOC(=O)N1CCC(NC(=O)CCc2c(C)nc3c(c(C)nn3C(C)(C)C)c2C)CC1` noted as 1.25

Value of differential viability (reversal) reported for the compound `O=C(O)CCCC(=O)Nc1ccc(Br)cc1C(=O)O` is 14.4

differential viability (reversal) for Cc1c(/C(O)=C2/C(=O)C(=O)N(CCN3CCOCC3)C2c2cccnc2)cnn1-c1ccccc1 (centres undefined) is 9.19

Reported differential viability (reversal) ( `O=C(NCCC1=CCCCC1)N[C@@H](Cc1ccccc1)C(=O)O` ) = 14.2

The compound listed as `O=C(C1CC1)N1CCc2cc(S(=O)(=O)N(CCO)Cc3ccccc3)ccc21` has a reported differential viability (reversal) of -1.38

The compound listed as CCOc1ccc(N(C(C)=O)C2C=CS(=O)(=O)C2)cc1 (centres undefined) shows differential viability (reversal) equal to 2.48

`Cc1csc(NC(=O)CSc2nsc(SCC(=O)Nc3nc(C)cs3)c2C#N)n1` has a reported differential viability (reversal) of -1.3

Data point: `O=C(c1ccco1)N1CCN(S(=O)(=O)c2ccc(Oc3ccccc3)cc2)CC1` ; differential viability (reversal) = -6.27

The reported value for `CN(C)c1nc(SCCOC(=O)c2ccccc2)nc(N(C)C)n1` in terms of differential viability (reversal) is 16.4

The recorded differential viability (reversal) for CCOC(=O)c1sc(N)c(C(=O)OCC)c1COC(=O)C1CC(=O)N(Cc2ccco2)C1 (centres undefined) is 22.6

# compound `CCOc1ccc(NC(=O)c2ccccc2O)cc1` ; its differential viability (reversal) = 10.1

Reported differential viability (reversal) for O=C1NC(c2ccco2)Nc2ccccc21 (centres undefined) was 7.01
